Test system: A498 renal
experiment: NCI-60 one-dose screen, 48 h
testConditions: 10 µM unless noted
This is part of a sample that, as a whole, favours compounds with a hit. Of some 83,000 tested, about 20% had one in any assay. Calls of active or inactive are those of the source. Rule for the calls: active = growth percent below 10; inactive = the rest.
Give one outcome, nothing more. List: active, inactive

Look over these answered cases.
O=C1C(=C(O)c2ccccc2)C(=O)c2ccccc21 ... inactive
COc1cc2ncnc(Nc3ccc(F)c(Cl)c3)c2cc1OCC(=O)N1CCCCC1 ... inactive
N=C(N)c1ccc(-c2ccc(-c3ccc(Cl)c(Cl)c3)s2)cc1 ... inactive
COc1ccc(Nc2ncnc3ccc(-c4cncc(NS(C)(=O)=O)c4)cc23)cc1Cl ... active
C=C[C@]1(C)C=C2CC[C@@H]3C(C)(C)C(=O)CC[C@@]3(C)[C@@H]2CC1 ... inactive

Write down the call the test reported for this compound. Item: `COc1ccc(Oc2nc(Nc3ccc(N4CCOCC4)cc3)ncc2NC(=O)c2cccc(C(F)(F)F)c2)cc1`
inactive

Tell me the assay call for CC[C@]12CN3CCc4c([nH]c5ccccc45)[C@@](C(=O)OC)(c4cc5c(cc4OC)N(C)[C@H]4[C@@](O)(C(=O)OC)[C@H](OC(C)=O)[C@]6(CC)C=CCN7CC[C@]54[C@@H]76)CC(C3)[C@H]1O2 (some centres not stated) please.
active

Please share the test call associated with `COc1ccc2c(c1)c(-c1nc(-c3c[nH]c4c(Cl)nccc34)cs1)cn2C` .
inactive

Dear colleague, could you share the recorded outcome for `CCN(CC)CC(=O)Nc1ccc2ncnc(Nc3ccc(Oc4cccc(F)c4)c(Cl)c3)c2c1` when you have a moment?
inactive

Each compound tested received a call. Report the one for `CCNC(=O)Nc1ncccc1OCc1ccc(F)cc1` .
inactive

What was the test verdict on Nc1nc(N)c2c(n1)NC(c1cccc(Nc3ccnc4cc(C(F)(F)F)ccc34)c1)CC(c1ccc(F)cc1)=N2 (configuration not stated) ?
inactive

Give the logged outcome of this assay for the following compound: `O=C(N=Nc1c(O)[nH]c2ccccc12)Nc1ccc(Br)cc1`
inactive

###

Tested on: MDA-MB-231 breast
experiment: NCI-60 one-dose screen, 48 h (100 = growth as untreated, 0 = no growth, -100 = all killed)
testConditions: 10 µM unless noted
Experimental: Cells are grown in 96 well plates and exposed to the test compound for 48 hours. Compounds are tested at a single concentration, which is 10^-5 M for most compounds. The reported endpoint is percent growth (GI% or GIPRCNT), where numbers from 0 - 100% represent growth inhibition, and numbers from -100% - 0 represent cell death. For example, a value of 40 represents 60% growth inhibition. A value of 0 means no net growth occurred over the course of the experiment. […]
Compounds without any hit were thinned out: in the full panel of roughly 83,000, 20% have a hit.
Label scheme for growth: bin 0 (below 20%), bin 1 (20% to below 90%), bin 2 (90% or more)

Below, 6 compounds whose answers are already recorded.
COc1ccc(C/C(C)=C(\c2ccc(O)cc2)c2ccc(OCCCN(C)C)cc2)cc1 ... bin 2
COc1cc(C=O)ccc1Oc1ccc([N+](=O)[O-])cc1[N+](=O)[O-] ... bin 2
Cn1cc(-c2csc(-c3c[nH]c4ccc(F)cc34)n2)c2cnccc21 ... bin 0
Clc1nccc2c(-c3csc(-c4c[nH]c5ccc(Br)cc45)n3)c[nH]c12 ... bin 0
CC(=NCc1ccccc1)c1ccc(O)cc1O ... bin 2
Cc1ccc(C(=O)Nc2ccc(CN3CCN(C)CC3)c(C(F)(F)F)c2)cc1C#Cc1cnc(N)cc1C#N ... bin 0

Entry `Clc1cccc(Nc2ncnc3ccc(-c4cncc(-n5cnnn5)c4)cc23)c1` belongs to which category?
bin 1

Class for `COc1cc2cc(NCc3ccncc3)nc(C)c2cc1OC` ?
bin 1
